MEASURED_TARGET: BACE (recombinant human BACE catalytic domain, expressed in CHO cells as BACE-T-IgG, IgG1 removed with thrombin) (human) (UniProt P56817)
Sequence (P56817 43-460 limits assumed, form in doubt): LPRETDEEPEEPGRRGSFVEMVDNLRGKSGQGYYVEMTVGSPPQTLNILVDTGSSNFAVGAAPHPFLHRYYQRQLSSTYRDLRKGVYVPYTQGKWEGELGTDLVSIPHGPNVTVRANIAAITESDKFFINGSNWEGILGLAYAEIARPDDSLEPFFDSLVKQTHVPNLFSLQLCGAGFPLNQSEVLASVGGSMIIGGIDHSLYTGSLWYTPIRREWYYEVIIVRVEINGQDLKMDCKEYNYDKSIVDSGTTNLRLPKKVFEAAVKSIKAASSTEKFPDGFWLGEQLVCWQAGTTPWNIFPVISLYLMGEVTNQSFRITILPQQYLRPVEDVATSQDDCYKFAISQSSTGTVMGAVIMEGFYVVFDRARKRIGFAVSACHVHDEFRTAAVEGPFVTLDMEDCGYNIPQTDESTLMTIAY
RUN_DESCRIPTION: fluorescence anisotropy binding assay, pH 4.5; comparison of label positions (X, Y1, Z)
Where no end group is shown, it is not given here.
MEASURE: Kd (nM)
Give the quantity in nM, number only.

Please fill in: Kd reported for YPYFIPL (not fully specified (N-terminus, C-terminus)) [Molecule Y1 (YPYFIPL with C-terminal Alexa488)] = 58

Origin of the recorded values: patent US20070149763A1
